- assayName: Oral bioavailability and pharmacokinetic study in mice
- Format: in vivo, female CD1 mice
- measurementConditions: female, CD1, mouse, in vivo, iv, 1 mg/kg
parameterMeasured: AUC(0-inf) (ng·h/mL)
// return numeric value only (unit: ng·h/mL, not printed)

q: Tell me its AUC(0-inf) given COc1ccc(Cn2[se]c3ccccc3c2=O)cn1 as the entry.
a: 203

###

- assayName: Oral bioavailability and pharmacokinetic study in mice
- Format: in vivo, female CD1 mice
- measurementConditions: female, CD1, mouse, plasma; IV dose at 1 mg/kg, mean; read-out: T1/2 (converted)
parameterMeasured: half-life (min)
// return numeric value only (unit: min, not printed)

q: Tell me its half-life given COc1ccc(Cn2[se]c3ccccc3c2=O)cn1 as the entry.
a: 20.8
